# measured.on: ENL (Homo sapiens)
# Construct: tested whether the compounds degrade ENL and AF9 in MV4;11 leukemia cells; endogenous in cells; host or cells: MV4;11; Molm-13
# Sequence (Q03111 whole entry): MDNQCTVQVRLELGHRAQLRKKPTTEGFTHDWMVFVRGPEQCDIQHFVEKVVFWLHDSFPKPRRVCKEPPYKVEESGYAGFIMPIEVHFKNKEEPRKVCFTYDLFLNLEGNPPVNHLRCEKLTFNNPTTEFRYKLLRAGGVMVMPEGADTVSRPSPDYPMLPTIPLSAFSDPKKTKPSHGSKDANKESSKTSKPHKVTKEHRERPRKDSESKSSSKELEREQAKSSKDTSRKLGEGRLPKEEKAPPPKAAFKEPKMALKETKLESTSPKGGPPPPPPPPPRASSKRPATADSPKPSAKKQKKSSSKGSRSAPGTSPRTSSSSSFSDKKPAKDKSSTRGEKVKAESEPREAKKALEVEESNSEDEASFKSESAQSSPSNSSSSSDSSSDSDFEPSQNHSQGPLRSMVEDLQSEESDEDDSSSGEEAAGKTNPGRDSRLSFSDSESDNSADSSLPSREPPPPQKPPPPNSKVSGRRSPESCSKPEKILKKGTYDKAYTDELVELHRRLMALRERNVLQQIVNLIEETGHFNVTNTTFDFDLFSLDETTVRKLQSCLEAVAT
# test.protocol: ENL degradation in MV4;11 cells (Western blot)
# Format: cell-based
# measurement.parameters: 24 h treatment, read-out: DC50 (concentration at which a protein is reduced by 50%), ENL
test.readout: DC50 (µM)

| molecule | DC50 (µM) |
| --- | --- |
| C[C@H]1CCCN1Cc1nc2cc(NC(=O)c3ccc4c(cnn4CCCCCCCCNc4cccc5c4C(=O)N(C4CCC(=O)NC4=O)C5=O)c3)ccc2[nH]1 (some centres unmarked) | 0.037 |

1 = C[C@H]1CCCN1Cc1nc2cc(NC(=O)c3ccc4c(cnn4CCCCNc4cccc5c4C(=O)N(C4CCC(=O)NC4=O)C5=O)c3)ccc2[nH]1 (some centres unmarked)
2 = C[C@H]1CCCN1Cc1nc2cc(NC(=O)c3ccc4c(cnn4CCCNc4cccc5c4C(=O)N(C4CCC(=O)NC4=O)C5=O)c3)ccc2[nH]1 (some centres unmarked)
3 = C[C@H]1CCCN1Cc1nc2cc(NC(=O)c3ccc4c(cnn4CCCCCNc4cccc5c4C(=O)N(C4CCC(=O)NC4=O)C5=O)c3)ccc2[nH]1 (some centres unmarked)
Put the molecules in ascending order of DC50. // rank by listing labels in the order requested 3, 2, 1

FYI, the data here is from patent US20250235437A1.
